system: NCI-H650; test: relative viability (nuclei count vs DMSO), 5 days (fraction); higher = more cells survive; details: first compound 0.04 µM

{"molecule": "Clc1ccc(Nc2nnc(Cc3ccncc3)c3ccccc23)cc1 [Vatalanib] + CS(=O)(=O)CCNCc1ccc(-c2ccc3ncnc(Nc4ccc(OCc5cccc(F)c5)c(Cl)c4)c3c2)o1 [Lapatinib] (partner 2 µM)", "relative viability": 0.694}
{"molecule": "Clc1ccc(Nc2nnc(Cc3ccncc3)c3ccccc23)cc1 [Vatalanib] + C[C@]1(O)C[C@@H](c2nc(-c3ccc4ccc(-c5ccccc5)nc4c3)c3c(N)nccn32)C1 [Linsitinib] (partner 1 µM)", "relative viability": 0.942}
{"molecule": "C[C@@H]1CN(CC(=O)Nc2ccc3c(c2)Cc2cccc(-c4cc(=O)cc(N5CCOCC5)o4)c2S3)C[C@H](C)O1 + C[C@]1(O)C[C@@H](c2nc(-c3ccc4ccc(-c5ccccc5)nc4c3)c3c(N)nccn32)C1 [Linsitinib] (partner 1 µM)", "relative viability": 0.85}
{"molecule": "C[C@@H]1CN(CC(=O)Nc2ccc3c(c2)Cc2cccc(-c4cc(=O)cc(N5CCOCC5)o4)c2S3)C[C@H](C)O1 + O=C(CCCCCCC(=O)Nc1ccccc1)NO [Vorinostat] (partner 1 µM)", "relative viability": 0.364}
